Every entry's value here was drawn from patent US20250026778A1.

study-target: his-galectin-3 (Homo sapiens, UniProt P17931)
Construct: purchased Abcam
Sequence (P17931 whole entry): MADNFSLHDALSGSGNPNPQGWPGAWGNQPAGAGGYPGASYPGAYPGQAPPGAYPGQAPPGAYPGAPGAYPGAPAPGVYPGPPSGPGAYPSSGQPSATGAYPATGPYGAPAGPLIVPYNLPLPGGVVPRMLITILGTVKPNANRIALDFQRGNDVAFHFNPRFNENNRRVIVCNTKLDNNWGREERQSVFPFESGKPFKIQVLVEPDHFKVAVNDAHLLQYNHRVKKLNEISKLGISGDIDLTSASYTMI
procedure-details: TR-FRET assay (in vitro galectin-3 binding inhibitory activity test)
measurement-setup: Table 2; compound at 20 μM; 60 nM his-galectin-3, 15 nM biotin-ASF; read-out: % Inhibitory activity (at 20 μM)
attribute-measured: inhibition at 20 µM

- CO[C@@H]1[C@@H](n2cc(-c3cc(F)c(F)c(F)c3)nn2)[C@@H](O)[C@@H](CO)O[C@@]12CCCO2: 25 to 50%
- O=C(N[C@@H]1CCO[C@]12O[C@H](CO)[C@H](O)[C@H](n1cc(-c3cc(F)c(F)c(F)c3)nn1)[C@H]2O)c1sc2ccccc2c1Br: > 75%
- O=C(N[C@@H]1CCO[C@]12O[C@H](CO)[C@H](O)[C@H](n1cc(-c3cc(F)c(F)c(F)c3)nn1)[C@H]2O)c1cccc2ccc(Cl)cc12: > 75%
- Cc1ccc2ccccc2c1C(=O)N[C@@H]1CCO[C@]12O[C@H](CO)[C@H](O)[C@H](n1cc(-c3cc(F)c(F)c(F)c3)nn1)[C@H]2O: 50 to 75%
- O=C(c1ccccn1)N1CCC[C@]2(C1)O[C@H](CO)[C@H](O)[C@H](n1cc(-c3cc(F)c(F)c(F)c3)nn1)[C@H]2O: < 25%

Q) Which inhibition at 20 µM is reported for this compound? O=C(N[C@@H]1CCO[C@]12O[C@H](CO)[C@H](O)[C@H](n1cc(-c3cc(F)c(F)c(F)c3)nn1)[C@H]2O)c1ccnc2ccccc12
A) > 75%

Q) What value of inhibition at 20 µM has been reported for the following compound? O=C(N[C@@H]1CCO[C@]12O[C@H](CO)[C@H](O)[C@H](n1cc(-c3cc(F)c(F)c(F)c3)nn1)[C@H]2O)c1ccc(Cl)c2ccccc12
A) > 75%

Q) Dear colleague, I am looking for the recorded inhibition at 20 µM of the following compound: O=C(N[C@@H]1CCO[C@]12O[C@H](CO)[C@H](O)[C@H](n1cc(-c3cc(F)c(F)c(F)c3)cn1)[C@H]2O)c1cccc2ccc(Cl)cc12
A) > 75%

Q) Given the entry Cc1cc(C(=O)N[C@@H]2CCO[C@]23O[C@H](CO)[C@H](O)[C@H](n2cc(-c4cc(F)c(F)c(F)c4)cn2)[C@H]3O)c2cc(Cl)ccc2n1 , report its measured inhibition at 20 µM.
A) > 75%

Q) # lookup: inhibition at 20 µM of O=C(N[C@@H]1CCO[C@]12O[C@H](CO)[C@H](O)[C@H](n1cc(-c3cc(F)c(F)c(F)c3)nn1)[C@H]2O)c1csc2ccc(F)cc12
A) > 75%

Q) Entry O=C(N[C@@H]1CCO[C@]12O[C@H](CO)[C@H](O)[C@H](n1cc(-c3cc(F)c(F)c(F)c3)nn1)[C@H]2O)c1noc2cc(Cl)ccc12 : reported inhibition at 20 µM = ?
A) 25 to 50%

Q) What value of inhibition at 20 µM has been reported for the following compound? O=C(N[C@@H]1CCO[C@]12O[C@H](CO)[C@H](O)[C@H](n1cc(-c3cc(F)c(F)c(F)c3)nn1)[C@H]2O)c1csc2ccc(Br)cc12
A) > 75%

---

study-target: his-galectin-3 (Homo sapiens)
Construct: purchased Abcam
procedure-details: TR-FRET assay (in vitro galectin-3 binding inhibitory activity test)
measurement-setup: read-out: % Inhibitory activity (at 20 μM), Table 1; compound at 20 μM; 60 nM his-galectin-3, 15 nM biotin-ASF
Procedure: TR-FRET Assay (In Vitro Galectin-3 Binding Inhibitory Activity Test) TR-FRET assay was performed in ½ Area Plate-96 (PerkinElmer). […] After incubation for at least 3.5 hours at RT, TR-FRET signals were measured at 615/665 nm […] wavelengths using a VICTOR Nivo (PerkinElmer). […] N-acetyl-D-lactosamine (LacNAc), an endogenous ligand unit of galectin-3, was evaluated together as a control substance to compare galectin-3 binding inhibitory activity.
# Lookup of reported inhibition at 20 µM keyed by entry

Would you please look over these solved cases?
- O=C(Cc1cccc(Cl)c1)N1CCC[C@]2(C1)O[C@H](CO)[C@H](O)[C@H](n1cc(-c3cc(F)c(F)c(F)c3)nn1)[C@H]2O [Compound A139]: < 25%
- O=C(Cc1ccccc1)N[C@@H]1CCO[C@]12O[C@H](CO)[C@H](O)[C@H](n1cc(-c3cc(F)c(F)c(F)c3)nn1)[C@H]2O [Compound A146]: 25 to 50%
- CC(O[C@@H]1[C@@H](n2cc(-c3cc(F)c(F)c(F)c3)nn2)[C@@H](O)[C@@H](CO)O[C@@]12CCCO2)C(=O)O (stereo partly drawn) [Compound A66]: 25 to 50%
- OC[C@H]1O[C@@]2(CCCN(Cc3cccnc3)C2)[C@H](O)[C@@H](n2cc(-c3cc(F)c(F)c(F)c3)nn2)[C@H]1O [Compound A142]: < 25%
- CC(O[C@@H]1[C@@H](n2cc(-c3cc(F)c(F)c(F)c3)nn2)[C@@H](O)[C@@H](CO)O[C@@]12CCCCO2)C(=O)O (stereo partly drawn) [Compound A55]: 50 to 75%

Next compound, please.
Q) Return reported inhibition at 20 µM; argument: O=C(OC1[C@@H](n2cc(-c3cc(F)c(F)c(F)c3)nn2)[C@@H](O)[C@@H](CO)O[C@@]12CCCO2)c1cccnc1 (stereo in doubt) [Compound A75]
A) 25 to 50%

---

study-target: his-galectin-3 (Homo sapiens, UniProt P17931)
Construct: purchased Abcam
procedure-details: TR-FRET assay (in vitro galectin-3 binding inhibitory activity test)
measurement-setup: Table 1; compound at 20 μM; 60 nM his-galectin-3, 15 nM biotin-ASF; read-out: % Inhibitory activity (at 20 μM)
List of inhibition at 20 µM values.

Q) Using the record for OC[C@H]1O[C@@]2(CCCO2)[C@H](OCC(F)F)[C@@H](n2cc(-c3cc(F)c(F)c(F)c3)nn2)[C@H]1O , report its inhibition at 20 µM.
A) 25 to 50%

Q) Any idea what inhibition at 20 µM was measured for COc1cccc(C(=O)O[C@@H]2[C@@H](n3cc(-c4cc(F)c(F)c(F)c4)nn3)[C@@H](O)[C@@H](CO)O[C@@]23CCCCO3)c1 ?
A) 25 to 50%

Q) I have this compound here, O=C(Cc1cccc(F)c1)N[C@@H]1CCO[C@]12O[C@H](CO)[C@H](O)[C@H](n1cc(-c3cc(F)c(F)c(F)c3)nn1)[C@H]2O , and I need its recorded inhibition at 20 µM.
A) 50 to 75%

Q) Quick one: inhibition at 20 µM of O=C(Cc1ccc2ccccc2c1)N[C@@H]1CCO[C@]12O[C@H](CO)[C@H](O)[C@H](n1cc(-c3cc(F)c(F)c(F)c3)nn1)[C@H]2O ?
A) 50 to 75%

Q) Please give the measured inhibition at 20 µM for this compound: OC[C@H]1O[C@@]2(CCCO2)[C@H](OCc2ccccc2O)[C@@H](n2cc(-c3cc(F)c(F)c(F)c3)nn2)[C@H]1O
A) 25 to 50%

---

Form field: inhibition at 20 µM (one value per entry).
study-target: his-galectin-3 (Homo sapiens, UniProt P17931)
Construct: purchased Abcam
procedure-details: TR-FRET assay (in vitro galectin-3 binding inhibitory activity test)
measurement-setup: Table 2; compound at 20 μM; 60 nM his-galectin-3, 15 nM biotin-ASF; read-out: % Inhibitory activity (at 20 μM)
Description: TR-FRET Assay (In Vitro Galectin-3 Binding Inhibitory Activity Test) TR-FRET assay was performed in ½ Area Plate-96 (PerkinElmer). […] After incubation for at least 3.5 hours at RT, TR-FRET signals were measured at 615/665 nm […] wavelengths using a VICTOR Nivo (PerkinElmer). […] N-acetyl-D-lactosamine (LacNAc), an endogenous ligand unit of galectin-3, was evaluated together as a control substance to compare galectin-3 binding inhibitory activity.

# count of solved cases: 4
- O=C(N[C@@H]1CCO[C@]12O[C@H](CO)[C@H](O)[C@H](n1cc(-c3cc(F)c(F)c(F)c3)nn1)[C@H]2O)c1coc2ccccc12: > 75%
- O=C(N[C@@H]1CCO[C@]12O[C@H](CO)[C@H](O)[C@H](n1cc(-c3cc(F)c(F)c(F)c3)nn1)[C@H]2O)c1c[nH]c2ccc(Cl)cc12: 50 to 75%
- O=C(c1cc2ccccc2s1)N1CCC[C@]2(C1)O[C@H](CO)[C@H](O)[C@H](n1cc(-c3cc(F)c(F)c(F)c3)nn1)[C@H]2O: < 25%
- Cn1cc(C(=O)N[C@@H]2CCO[C@]23O[C@H](CO)[C@H](O)[C@H](n2cc(-c4cc(F)c(F)c(F)c4)nn2)[C@H]3O)c2cc(Cl)ccc21: 50 to 75%

Could you now look at the following compound, please?
Q) Can you share its inhibition at 20 µM? I mean this compound: O=C(N[C@@H]1CCO[C@]12O[C@H](CO)[C@H](O)[C@H](n1cc(-c3cc(F)c(F)c(F)c3)nn1)[C@H]2O)c1coc2cccc(Br)c12
A) > 75%
